# credit: PubChem BioAssay AID1508600

Test: Components of the Cytosolic LPS Sensing Pathway: Gene Identification via Genome-wide siRNA Screen;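 also: robust z of the log signal after scaling to non-targeting control siRNA wells of the plate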
Conditions: RAW264.7 macrophages, IL-1a HTRF, actives lie on both sides, screened at 100 nM (by protocol), cells primed 5 h with Pam3CSK4 first
Description: Non-canonical inflammasome activation by cytosolic LPS is a critical component of the host response to Gram-negative bacterial infection, however we lack a comprehensive understanding of the cellular processes that control this pathway. […] Lipofectamine RNAiMAX Transfection Reagent ([…]; Invitrogen) was added in […] serum-free, antibiotic-free media to plate wells using a Thermo Scientific Matrix WellMate and Microplate Stacker. […] The plates were read on an EnVision plate reader (PerkinElmer). […]
Out of some 53,000 sequences screened, about 3,700 (7%) were called active. This excerpt belongs to a sample that is enriched for actives.
Our labelling divides records by z-score into ranges: category 1 = under -0.4, category 2 = from -0.4 up to 0.3, category 3 = 0.3 and over

Before answering, review these 5 worked examples.
Enquiry: Which bin, given its z-score, does GGCUGACUUCGUUUUCAUGTT against Derl3 occupy?
Return: category 1

Enquiry: Would you mind sorting GGAACACCACCUUAGAGAUTT against Hnrnpa2b1 into the appropriate category?
Return: category 3

Enquiry: Entry GCUUAAGGAUCCAUAAUGUTT against Musk belongs to which category?
Return: category 3

Enquiry: Form field 'band' for GGUAUCAUUUACUUUGAACTT against Gtf2f2
Return: category 2

Enquiry: Would you mind sorting GGAUCAUUCGGACAAAAGUTT against Pax5 into the appropriate category?
Return: category 1

***
Enquiry: Returns: class label. Input: CCAGCAAAUAUCCUAGUAATT against Cdk19
Return: category 2

Enquiry: Class label required: GGAGAGAGACACAAGCUUGTT against Map7d1
Return: category 3

Enquiry: GET /class?item= GCACUCAAGGUUUUACUGUTT against Satb1
Return: category 2

Enquiry: Into which category would you place AGAAUCUUUAAAGGAAGUCTT against Olfr325 ?
Return: category 2

Enquiry: For CGGUGACAUUUGUGAAACUTT against Smn1 , which z-score bin applies?
Return: category 1

----------
test: Components of the Cytosolic LPS Sensing Pathway: Gene Identification via Genome-wide siRNA Screen; details: RAW264.7 macrophages, IL-1a HTRF, actives lie on both sides, screened at 100 nM (by protocol), cells primed 5 h with Pam3CSK4 first;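 also: robust z of the log signal after scaling to non-targeting control siRNA wells of the plate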
Screen size: about 53,000 sequences; about 3,700 (7%) were called active. This excerpt belongs to a sample that is enriched for actives.
valueType: z-score
Answers are plain numbers.

Known results for sequences:
For reference, reported z-score for GGGUCACGUGCUGUCUCAUTT against Slc22a20 stands at -1.55

So, GGAUGAAGGAAUCCAUGCATT against Pcdhga6 ? Its z-score was -0.133

The sequence listed as CGCAGGACUAUAAACUGAATT against Ptdss2 shows z-score equal to 0.954

Record summary for CCAAAGAAGGUGAGAUUUGTT against Clstn1 : reported z-score = -0.161

Consider CGGCGUGUUUAUUUGCUAUTT against Rab27a . Its measured z-score is -1.38

Entry GGUGAUAUCUUUCCAUCUUTT against Wiz ; z-score = -0.176

Measured z-score, GGAACAGAGCCUUUCUCAGTT against Rnf183 : -0.153

Briefly, z-score measured for GGCAGAUGAUGGUCCAUGCTT against Tfpi : -1.63

# z-score (sequence: GGACAAAUGGUAUUGUAGUTT against Coa5 ) is -1.72

For reference, reported z-score for GGUGUAUGUCACCCUGACCTT against Sag stands at -0.617

Quick request: z-score for each listed item, please.
1. GCUACGCAAUAAGACCACATT against Lamc3
2. GGCAGCAUGAUUAUUUCAATT against Gm4861
3. GCAAAGUACCCACCUUUGUTT against Pitpna

Return:
1: 2.25; 2: -0.0747; 3: 2.06

Record z-score for all entries; do not skip any.
1. GGUGUGUGGCCAGAAAGUUTT against Sfi1
2. GGUCAUAGCUGGAUUCCUUTT against Olfr1453
3. GGGUUUGACCUGAUUUCUCTT against Col9a1
4. GGAAUCUGAAUUUUUGUGUTT against Commd1
5. GGAUGUAGAUGUUGGUUUUTT against Kcnj14

Return:
-2.83
-1.47
0.305
-0.576
2.52

# return z-score for each item in the list
1. GGCUCUGGCAGAAAUGGAUTT against Pex26
2. GAGCAGAGGAUUGAUGCACTT against Nlrp4g
3. CGGAUAACAAAAGUAGCAATT against Trp53rka
4. GGAUAUGGGAAUGAAAGCATT against Nyap2
5. GGACUUAUCAAGCUGGUUUTT against Rps25
6. GGAUCUAUAUCCAGUAGAGTT against Mief2

Return:
[-0.0204, 0.918, 0.276, -2.21, -1.48, 3.38]

The reported z-score of the sequence GGCAACAAAAAAAUCCCAATT against Cd160 was -0.647
